Test: blockers of measles virus-induced cell death – single point, MLSMR library, absorbance, measles RdRp inhibitor project, primary screen (AID 841)
Conditions: Measles virus-infected cells, CPE protection, at 4 µM, hits give high values
The campaign covered roughly 140,000 compounds. About 2,100 (1.5%) were called active. This excerpt belongs to a sample that is enriched for actives.
measurement-kind: protection (pct of control) (%)
A number alone suffices; assume %.

1) CCCc1cc(=O)[nH]c(SCc2cc(=O)oc3c(C)c(C)ccc23)n1
29.1
2) Cc1ccc(C(=O)NCC2CCCO2)o1 (stereo not drawn)
45.6

Task: Could you share which protection (pct of control) value was measured for Cc1nc2ccccc2c2oc(C(=O)NCC3CCCO3)cc12 (stereo not drawn) ?
Result: 13.5

Hey, just so you know, these numbers are from PubChem BioAssay AID841.
